Record form. Attribute: IC50, inhibition of CDC of Daudi cells, 1.66% human serum, 2 nM anti-CD20 antibody. Fill in for each entry.
target: human C5 (human, UniProt P01031 19-1676); experiment: cell-based or functional assay
Please give a number only; it is taken to be in nM.

Lookup: Consider the binder H4H12166P7 (antibody, human IgG4, V domains shown, histidine-mutated CDR variant of H4H12166P; human IgG4 (S108P)) VH: QVQLQESGPGLVKPSETLSLTCTVSGDSVSSSYWTWIRQPPGKGLEWIGYIYYSGSSNYNPSLKSRATISVDTSKNQFSLKLSSVTAADTAVYYCAREHNVDTTMIFDYWGQGTLVTVSS VL: AIQMTQSPSSLSASVGDRVTITCRASQGIRNDLGWYQQKPGKAPKLLIYAASSLQSGVPSRFAGRGSGTDFTLTISSLQPEDFATYYCLQDFNYPWHFGQGTKVEIK and give its measured IC50, inhibition of CDC of Daudi cells, 1.66% human serum, 2 nM anti-CD20 antibody.
Found: 7.3

Lookup: Any idea what its IC50, inhibition of CDC of Daudi cells, 1.66% human serum, 2 nM anti-CD20 antibody is? The binder is H4H12166P10 (antibody, human IgG4, V domains shown, histidine-mutated CDR variant of H4H12166P; human IgG4 (S108P)) VH: QVQLQESGPGLVKPSETLSLTCTVSGDSVSSSYWTWIRQPPGKGLEWIGYIYYSGSSNYNPSLKSRATISVDTSKNQFSLKLSSVTAADTAVYYCAREGNVDTTMIHDYWGQGTLVTVSS VL: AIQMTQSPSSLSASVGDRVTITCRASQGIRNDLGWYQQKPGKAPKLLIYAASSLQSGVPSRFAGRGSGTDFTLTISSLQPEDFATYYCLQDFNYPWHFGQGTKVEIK
Found: 12

Lookup: Can you look up the measured IC50, inhibition of CDC of Daudi cells, 1.66% human serum, 2 nM anti-CD20 antibody of H4H12166P5 (antibody, human IgG4, V domains shown, histidine-mutated CDR variant of H4H12166P; human IgG4 (S108P)) VH: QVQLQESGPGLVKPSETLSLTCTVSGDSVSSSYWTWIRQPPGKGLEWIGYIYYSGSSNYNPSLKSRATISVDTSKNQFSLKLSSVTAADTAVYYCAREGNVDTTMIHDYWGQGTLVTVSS VL: AIQMTQSPSSLSASVGDRVTITCRASQGIRNDLGWYQQKPGKAPKLLIYAASSLQSGVPSRFAGRGSGTDFTLTISSLQPEDFATYYCLQDFNYPWTFGQGTKVEIK for me?
Found: 4.9
